Tested on: HK2 cells
assay.info: Cell Titer-Glo anti-proliferation, normal cells HK2
Type: cell-based
value.kind: IC50 (nM)
Express the result in nM but write the number alone.

I would be grateful if you could share the reported IC50 for C=CCn1c(=O)c2cnc(Nc3ccc(N4C[C@H]5CN(C)C[C@H]5C4)cc3)nc2n1-c1ccc2c(n1)C(O)(C(F)(F)F)C1(CC1)C2 (mixture of isomers) [Compound 55] .
930

Lookup C=CCn1c(=O)c2cnc(Nc3ccc(N4CCC(N(C)C)CC4)cc3)nc2n1-c1ccc2c(n1)[C@@](C)(O)C1(CC2)CC1 [Compound 65a]
700

Lookup C=CCn1c(=O)c2cnc(Nc3ccc(N4CC5CC(C4)N5C)cc3)nc2n1-c1ccc2c(n1)[C@@](C)(O)C1(CC2)CC1 [Compound 7a]
670

Lookup C=CCn1c(=O)c2cnc(Nc3ccc(N4CCN(C(C)C)CC4)cc3)nc2n1-c1ccc2c(n1)[C@@H](O)C1(CC2)CC1 (single isomer, unassigned) [Compound 57b]
920

Lookup C=CCn1c(=O)c2cnc(Nc3ccc(N4CCC5(CCN(C)CC5)CC4)c(C)c3)nc2n1-c1ccc2c(n1)[C@H](O)C1(CC2)CC1 (single isomer, unassigned) [Compound 61b]
490

Lookup C=CCn1c(=O)c2cnc(Nc3ccc(N4CCC(N(C)C)CC4)c(C)c3)nc2n1-c1ccc2c(n1)[C@@H](O)C1(CC2)CC1 (single isomer, unassigned) [Compound 41b]
550
